B1: PRKX (parent)
chain: KLLVVDRTRRLGNMKNGANDVKHH

Variants of: B1
TEST_SUMMARY: protein stability index of a GFP-peptide fusion (GPS, HEK-293T) (PSI 1-6); higher = more stable;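 also: lentivirally expressed fusions sorted by FACS into six bins by GFP to DsRed ratio, PSI derived from sequencing read proportions per bin multiplied by bin number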
PARTICULARS: c terminus: a fixed tail appended
MEASUREMENT_LABEL: protein stability index
One number for each entry.

Use the examples below as a reference point.
Return protein stability index for the following variant: L3G
3.93

Return protein stability index for the following variant: D6Q
2.03

Return protein stability index for the following variant: V5M
2.95

Return protein stability index for the following variant: K22H
3.06

For each listed entry, give its protein stability index.
1. N16Q
2. M14F
3. V4M

1: 3.25; 2: 2.99; 3: 2.57

For each listed entry, give its protein stability index.
1. D20R
2. R7W

[2.53, 2.5]

For each listed entry, give its protein stability index.
1. A18F
2. R10T
3. K22C
4. D6N
5. H23V
6. M14L
7. L3N

2.53
3.83
2.7
2.95
2.96
2.89
3.62

For each listed entry, give its protein stability index.
1. K22L
2. R7V
3. V21N

1: 2.97; 2: 2.81; 3: 3.74

For each listed entry, give its protein stability index.
1. N13E
2. D20Q
3. V21K
4. L2E
5. D6M
6. A18G

1: 3.6; 2: 3.13; 3: 3.54; 4: 5.03; 5: 1.97; 6: 3.27

For each listed entry, give its protein stability index.
1. K22G
2. K1H
3. K15M
4. N19I
5. R9S
6. R7A
7. K1C

[3.24, 2.98, 2.73, 2.29, 3.33, 3.79, 1.85]

For each listed entry, give its protein stability index.
1. L11S
2. T8Y
3. N13G
4. N16I

1. 3.27
2. 2.67
3. 2.84
4. 2.74

For each listed entry, give its protein stability index.
1. K1S
2. K22R
3. A18T
4. R9W
5. H23Y

1: 3.51; 2: 2.97; 3: 3.23; 4: 2.12; 5: 2.35
